The measured values listed here are drawn from paper PMC4032193.

assay: in vitro; conditions: mouse, microsomes
Recorded half-life for the following compounds

Would you please look over these solved cases?
- smiles: "CC(=O)O[C@H]1C[C@H]2[C@@H]([C@H](OC(C)=O)C[C@@H]3C[C@H](O)CC[C@@]32C)[C@@H]2CC[C@H]([C@H](C)CCCNCCCNc3ccnc4cc(Cl)ccc34)[C@@]12C"
  half-life: "> 1 h"
- smiles: "CC(=O)O[C@H]1C[C@H]2[C@@H]([C@H](OC(C)=O)C[C@@H]3C[C@H](NS(C)(=O)=O)CC[C@@]32C)[C@@H]2CC[C@H]([C@H](C)CCCN(C)CCCNc3ccnc4cc(Cl)ccc34)[C@@]12C"
  half-life: "> 1 h"

Consider now this further compound.
Qu. Form field: reported half-life of CC(=O)O[C@H]1C[C@H]2[C@@H]([C@H](OC(C)=O)C[C@@H]3C[C@H](N(C)C)CC[C@@]32C)[C@@H]2CC[C@H]([C@H](C)CCCN(C)CCNc3ccnc4cc(Cl)ccc34)[C@@]12C
Ans. > 1 h

---

The following compounds are listed with their measured SI HepG2/W2 values.
system: HepG2 (hepatocellular carcinoma) cell line; conditions: human

- smiles: "CC(=O)O[C@H]1C[C@H]2[C@@H]([C@H](OC(C)=O)C[C@@H]3C[C@H](NS(C)(=O)=O)CC[C@@]32C)[C@@H]2CC[C@H]([C@H](C)CCCN(C)CCCNc3ccnc4cc(Cl)ccc34)[C@@]12C"
  reported.endpoint: "SI HepG2/W2"
  result: "93/89/139"

Kindly review the next compound as well.
Qu. Param item = CC(=O)O[C@H]1C[C@H]2[C@@H]([C@H](OC(C)=O)C[C@@H]3C[C@H](NC(=O)OC(C)(C)C)CC[C@@]32C)[C@@H]2CC[C@H]([C@H](C)CCCNCCNc3ccnc4cc(Cl)ccc34)[C@@]12C ; retrieve measured SI HepG2/W2.
Ans. 1743/531/464

---

system: HepG2 (hepatocellular carcinoma) cell line; conditions: human
Reported SI HepG2/TM91C235 by item:

Qu. May I ask what SI HepG2/TM91C235 has been recorded for CC(=O)O[C@H]1C[C@H]2[C@@H]([C@H](OC(C)=O)C[C@@H]3C[C@H](NC(=O)OC(C)(C)C)CC[C@@]32C)[C@@H]2CC[C@H]([C@H](C)CCCN(CCCNc3ccnc4cc(Cl)ccc34)CCC[C@@H](C)[C@H]3CC[C@H]4[C@@H]5[C@H](OC(C)=O)C[C@@H]6C[C@H](NC(=O)OC(C)(C)C)CC[C@]6(C)[C@H]5C[C@H](OC(C)=O)[C@]34C)[C@@]12C ?
Ans. 96/96/96

Qu. Fill in the blank: the reported SI HepG2/TM91C235 of CC(=O)O[C@H]1C[C@H]2[C@@H]([C@H](OC(C)=O)C[C@@H]3CC(=O)CC[C@@]32C)[C@@H]2CC[C@H]([C@H](C)CCCNCCNc3ccnc4cc(Cl)ccc34)[C@@]12C is ____.
Ans. 299/571/109

---

system: HepG2 (hepatocellular carcinoma) cell line; conditions: human
reported.endpoint: pIC50
Just so you know, pIC50 here is -log10 of the concentration in molar units; reply with that number alone.

Qu. Record CC(=O)O[C@H]1C[C@H]2[C@@H]([C@H](OC(C)=O)C[C@@H]3C[C@H](N)CC[C@@]32C)[C@@H]2CC[C@H]([C@H](C)CCCNCCNc3ccnc4cc(Cl)ccc34)[C@@]12C : what is its pIC50 with HepG2 (hepatocellular carcinoma) cell line?
Ans. 5.42

---

test system: HepG2 (hepatocellular carcinoma) cell line; conditions: human
Recorded SI HepG2/D6, one value per entry.

Guide cases for SI HepG2/D6, answers given:
- compound: "CC(=O)N[C@@H]1CC[C@@]2(C)[C@@H](C1)C[C@@H](OC(C)=O)[C@@H]1[C@@H]2C[C@H](OC(C)=O)[C@]2(C)[C@@H]([C@H](C)CCCNCCNc3ccnc4cc(Cl)ccc34)CC[C@@H]12 [Compound 36]"
  result: "126/116/126"
- compound: "CC(=O)O[C@H]1C[C@H]2[C@@H]([C@H](OC(C)=O)C[C@@H]3C[C@H](N)CC[C@@]32C)[C@@H]2CC[C@H]([C@H](C)CCCN(C)CCNc3ccnc4cc(Cl)ccc34)[C@@]12C [Compound 54]"
  result: "4993/3995/2327"
- compound: "CC(=O)O[C@H]1C[C@H]2[C@@H]([C@H](OC(C)=O)C[C@@H]3C[C@H](NS(C)(=O)=O)CC[C@@]32C)[C@@H]2CC[C@H]([C@H](C)CCCN(C)CCNc3ccnc4cc(Cl)ccc34)[C@@]12C [Compound 42]"
  result: "1194/2707/2197"
- compound: "CC(=O)O[C@H]1C[C@H]2[C@@H]([C@H](OC(C)=O)C[C@@H]3C[C@H](N(C)C)CC[C@@]32C)[C@@H]2CC[C@H]([C@H](C)CCCN(C)CCCNc3ccnc4cc(Cl)ccc34)[C@@]12C [Compound 57]"
  result: "93/35/71"
- compound: "CC(=O)O[C@H]1C[C@H]2[C@@H]([C@H](OC(C)=O)C[C@@H]3C[C@H](NS(C)(=O)=O)CC[C@@]32C)[C@@H]2CC[C@H]([C@H](C)CCCN(C)CCCNc3ccnc4cc(Cl)ccc34)[C@@]12C [Compound 43]"
  result: "93/89/139"

Qu. GET /values?readout=SI HepG2/D6&item= CC(=O)O[C@H]1C[C@H]2[C@@H]([C@H](OC(C)=O)C[C@@H]3C[C@H](N(C)C)CC[C@@]32C)[C@@H]2CC[C@H]([C@H](C)CCCN(C)CCNc3ccnc4cc(Cl)ccc34)[C@@]12C [Compound 56]
Ans. 6824/3920/3176

Qu. So what's the measured SI HepG2/D6 for this one? CC(=O)O[C@H]1C[C@H]2[C@@H]([C@H](OC(C)=O)C[C@@H]3C[C@H](N)CC[C@@]32C)[C@@H]2CC[C@H]([C@H](C)CCCN(CCCNc3ccnc4cc(Cl)ccc34)CCC[C@@H](C)[C@H]3CC[C@H]4[C@@H]5[C@H](OC(C)=O)C[C@@H]6C[C@H](N)CC[C@]6(C)[C@H]5C[C@H](OC(C)=O)[C@]34C)[C@@]12C [Compound 61]
Ans. 10/9/7

Qu. # lookup: SI HepG2/D6 of CC(=O)O[C@@H]1CC[C@@]2(C)[C@@H](C1)C[C@@H](OC(C)=O)[C@@H]1[C@@H]2C[C@H](OC(C)=O)[C@]2(C)[C@@H]([C@H](C)CCCN(C)CCCNc3ccnc4cc(Cl)ccc34)CC[C@@H]12 [Compound 21]
Ans. 134/229/71

---

system: HepG2 (hepatocellular carcinoma) cell line; details: human
reported.endpoint: SI HepG2/TM91C235

- smiles: "CC(=O)O[C@H]1C[C@H]2[C@@H]([C@H](OC(C)=O)C[C@@H]3C[C@H](N(C)C)CC[C@@]32C)[C@@H]2CC[C@H]([C@H](C)CCCN(C)CCCNc3ccnc4cc(Cl)ccc34)[C@@]12C"
  SI HepG2/TM91C235: "93/35/71"
- smiles: "CC(=O)N[C@@H]1CC[C@@]2(C)[C@@H](C1)C[C@@H](OC(C)=O)[C@@H]1[C@@H]2C[C@H](OC(C)=O)[C@]2(C)[C@@H]([C@H](C)CCCNCCCNc3ccnc4cc(Cl)ccc34)CC[C@@H]12"
  SI HepG2/TM91C235: "55/114/51"
- smiles: "CC(=O)O[C@H]1C[C@H]2[C@@H]([C@H](OC(C)=O)C[C@@H]3C[C@H](NS(C)(=O)=O)CC[C@@]32C)[C@@H]2CC[C@H]([C@H](C)CCCN(C)CCNc3ccnc4cc(Cl)ccc34)[C@@]12C"
  SI HepG2/TM91C235: "1194/2707/2197"
- smiles: "CC(=O)O[C@H]1C[C@H]2[C@@H]([C@H](OC(C)=O)C[C@@H]3CC(=O)CC[C@@]32C)[C@@H]2CC[C@H]([C@H](C)CCCNCCCCCCNc3ccnc4cc(Cl)ccc34)[C@@]12C"
  SI HepG2/TM91C235: "30/27/25"
- smiles: "CC(=O)O[C@H]1C[C@H]2[C@@H]([C@H](OC(C)=O)C[C@@H]3CC(=O)CC[C@@]32C)[C@@H]2CC[C@H]([C@H](C)CCCNCCCCNc3ccnc4cc(Cl)ccc34)[C@@]12C"
  SI HepG2/TM91C235: "7/6/6"
- smiles: "CC(=O)O[C@H]1C[C@H]2[C@@H]([C@H](OC(C)=O)C[C@@H]3C[C@H](N)CC[C@@]32C)[C@@H]2CC[C@H]([C@H](C)CCCN(C)CCCNc3ccnc4cc(Cl)ccc34)[C@@]12C"
  SI HepG2/TM91C235: "45/44/50"
- smiles: "CC(=O)O[C@@H]1CC[C@@]2(C)[C@@H](C1)C[C@@H](OC(C)=O)[C@@H]1[C@@H]2C[C@H](OC(C)=O)[C@]2(C)[C@@H]([C@H](C)CCCNCCCCNc3ccnc4cc(Cl)ccc34)CC[C@@H]12"
  SI HepG2/TM91C235: "107/55/47"

Qu. Item CC(=O)O[C@@H]1CC[C@@]2(C)[C@@H](C1)C[C@@H](OC(C)=O)[C@@H]1[C@@H]2C[C@H](OC(C)=O)[C@]2(C)[C@@H]([C@H](C)CCCNCCCNc3ccnc4cc(Cl)ccc34)CC[C@@H]12 has what recorded SI HepG2/TM91C235?
Ans. 104/101/67
